CLH by entry:
Procedure Summary: Intrinsic clearance in mouse liver microsomes at 0.5 uM incubated for 45 mins in presence of NADPH by LC-MS/MS analysis
Type: ADME, Microsome
Applied Conditions: 0.75 h
Readout: CLH (mL/min/g)

>  <Compound>
O=C(CCSc1nc2cc(F)c(F)cc2o1)N1CCCC1

>  <Measurement Unit>
mL/min/g

>  <Reading>
45.9

$$$$
>  <Compound>
O=C(CCSc1nc2cnccc2o1)N1CCCC1

>  <Measurement Unit>
mL/min/g

>  <Reading>
3.1

$$$$
>  <Compound>
CC(CC(=O)N1CCCC1)Sc1nc2cc(Cl)ccc2o1 (configuration not stated)

>  <Measurement Unit>
mL/min/g

>  <Reading>
165.1

$$$$
>  <Compound>
CN(C(=O)CCSc1nc2cc(Cl)ccc2o1)C1CCS(=O)(=O)C1 (configuration not stated)

>  <Measurement Unit>
mL/min/g

>  <Reading>
0.8

$$$$
>  <Compound>
O=C(CCSc1nc2c(Cl)cccc2o1)N1CCCC1

>  <Measurement Unit>
mL/min/g

>  <Reading>
97.9

$$$$
>  <Compound>
O=C(CCSc1nc2ccncc2o1)N1CCCC1

>  <Measurement Unit>
mL/min/g

>  <Reading>
5.7

$$$$
>  <Compound>
CS(=O)(=O)C1CCN(C(=O)CCSc2nc3cc(Cl)ccc3o2)CC1

>  <Measurement Unit>
mL/min/g

>  <Reading>
2.6

$$$$

---

Procedure Summary: Intrinsic clearance in mouse liver microsomes at 0.5 uM incubated for 45 mins in presence of NADPH by LC-MS/MS analysis
Type: ADME, Microsome
Applied Conditions: 0.75 h
Readout: log10(CLH) (log10 of the value in mL/min/g)

>  <Compound>
CN(C)C(=O)CCSc1nc2cc(Cl)ccc2o1

>  <log10(CLH)>
1.62

$$$$
>  <Compound>
O=C(CCSc1nc2cc(Cl)ccc2[nH]1)N1CCCC1

>  <log10(CLH)>
1.75

$$$$
>  <Compound>
CS(=O)(=O)N1CCN(C(=O)CCSc2nc3cc(Cl)ccc3o2)CC1

>  <log10(CLH)>
0.15

$$$$
>  <Compound>
O=C(CCNc1nc2cc(Cl)ccc2o1)N1CCCC1

>  <log10(CLH)>
1.91

$$$$
>  <Compound>
CC1CCN(C(=O)CCSc2nc3cc(Cl)ccc3o2)C1 (stereo unspecified)

>  <log10(CLH)>
1.96

$$$$
>  <Compound>
O=S1(=O)CCCN1CCCSc1nc2cc(Cl)ccc2o1

>  <log10(CLH)>
2.06

$$$$
>  <Compound>
O=C(CSCc1nc2cc(Cl)ccc2o1)N1CCCC1

>  <log10(CLH)>
1.86

$$$$
>  <Compound>
O=C(CCCc1nc2cc(Cl)ccc2o1)N1CCCC1

>  <log10(CLH)>
2.06

$$$$
>  <Compound>
O=C(CCSc1nc2cccc(Cl)c2o1)N1CCCC1

>  <log10(CLH)>
2.09

$$$$

---

Procedure Summary: Intrinsic clearance in human liver microsomes at 0.5 uM incubated for 45 mins in presence of NADPH by LC-MS/MS analysis
Assay type: ADME, Microsome
Applied Conditions: 0.75 h
Each item that follows carries a reported CLH.
Readout: CLH (mL/min/g)

>  <Molecule>
CC1CCN(C(=O)CCSc2nc3cc(Cl)ccc3o2)C1 (stereo not given)

>  <Readout>
CLH

>  <Measurement Unit>
mL/min/g

>  <Value Prefix>
=

>  <Reading>
10.1

$$$$
>  <Molecule>
O=C(CCSc1nc2cccc(Cl)c2o1)N1CCCC1

>  <Readout>
CLH

>  <Measurement Unit>
mL/min/g

>  <Value Prefix>
=

>  <Reading>
13.5

$$$$
>  <Molecule>
CN(C(=O)CCSc1nc2cc(Cl)ccc2o1)C1CCS(=O)(=O)CC1

>  <Readout>
CLH

>  <Measurement Unit>
mL/min/g

>  <Value Prefix>
<

>  <Reading>
0.4

$$$$
>  <Molecule>
O=C(CCSc1nc2cc(Cl)ccc2o1)N1CCOCC1

>  <Readout>
CLH

>  <Measurement Unit>
mL/min/g

>  <Value Prefix>
=

>  <Reading>
2.2

$$$$
>  <Molecule>
CC(CC(=O)N1CCCC1)Sc1nc2cc(Cl)ccc2o1 (stereo not given)

>  <Readout>
CLH

>  <Measurement Unit>
mL/min/g

>  <Value Prefix>
=

>  <Reading>
8.6

$$$$
